# assay_info: qHTS profiling of the MIPE4 collection as inhibitors of Plasmodium falciparum (DD2) proliferation (AID 743345)
# stated_conditions: P. falciparum Dd2 in erythrocytes, SYBR Green DNA, 72 h; at 28.5 µM (top of the series) unless noted
reported_endpoint: parasite growth remaining, % of DMSO control (lower = more inhibition) (%)

molecule	value_units	measured_value
CO[C@@]12[C@H](COC(N)=O)C3=C(C(=O)C(C)=C(N)C3=O)N1C[C@@H]1N[C@@H]12	%	7.06
CCC(C)(C)c1ccc(CC(C)CN2C[C@@H](C)O[C@@H](C)C2)cc1 (stereo not given in full)	%	82.2
O[C@@H](CNC[C@H](O)[C@H]1CCc2cc(F)ccc2O1)[C@@H]1CCc2cc(F)ccc2O1	%	8.23
Cc1oc(=O)oc1CN1CCN(c2cc3c(cc2F)c(=O)c(C(=O)O)c2n3C(C)S2)CC1 (stereo not given)	%	12.9
CC[C@H](NC(C)C)[C@H](O)c1ccc(O)c2[nH]c(=O)ccc12	%	107
NC(=O)N1c2ccccc2CC(=O)c2ccccc21	%	96.7
CCC(=O)O[C@]1(C(=O)CCl)[C@@H](C)C[C@H]2[C@@H]3CCC4=CC(=O)C=C[C@]4(C)[C@@]3(F)[C@@H](O)C[C@@]21C	%	55.4
CNCC[C@H](Oc1cccc2ccccc12)c1cccs1	%	7.89
CCOC(=O)c1ccc(C#Cc2ccc3c(c2)C(C)(C)CCS3)nc1	%	83.8
Cn1nnc2c(C(N)=O)ncn2c1=O	%	86.5

* * *

# System: CP215
# assay_info: qHTS profiling for inhibitors of Plasmodium falciparum proliferation (AID 504749); also: nearly all actives have a fitted effect of over 60% in size
# stated_conditions: P. falciparum in erythrocytes, SYBR Green DNA, 72 h; series mostly up to 28.7 µM
Results filed as inconclusive are left out. Calls of active or inactive are those of the source. Calls come from the whole dose curve; as a rule, active = well fitted inhibition curve with a large enough effect; inconclusive = small, poorly fitted or top-dose-only effect; inactive = flat fitted curve, though single readings scatter.
Possible outcomes: active, inactive

smi	class_assignment
COc1cc(NCc2ccc3nc(N)nc(N)c3c2C)cc(OC)c1OC	active
Cc1nnc(NS(=O)(=O)c2ccc(N)cc2)s1	inactive
CNC(=O)c1cc(Oc2ccc(NC(=O)Nc3ccc(Cl)c(C(F)(F)F)c3)cc2)ccn1	active
COc1cnc(NS(=O)(=O)c2ccc(N)cc2)nc1	inactive
CCOC(=O)c1ccc(C#Cc2ccc3c(c2)C(C)(C)CCS3)nc1	inactive
N[C@@H](C(=O)N[C@@H]1C(=O)N2C(C(=O)O)=C(Cl)CS[C@H]12)c1ccccc1	inactive
COc1ccc2cc3[n+](cc2c1OC)CCc1cc2c(cc1-3)OCO2	active
CC[C@H](NC(C)C)[C@H](O)c1ccc(O)c2[nH]c(=O)ccc12	inactive
Nc1ccc(S(=O)(=O)Nc2ccccn2)cc1	inactive
NC(N)=NC(N)=NCCc1ccccc1	inactive
CCn1cc(C(=O)O)c(=O)c2cc(F)c(N3CCNCC3)nc21	inactive

* * *

# Tested on: CP185
# assay_info: qHTS profiling for inhibitors of Plasmodium falciparum proliferation (AID 504749); also: nearly all actives have a fitted effect of over 60% in size
# stated_conditions: P. falciparum in erythrocytes, SYBR Green DNA, 72 h; series mostly up to 28.7 µM
Records with an inconclusive call do not appear. Active and inactive are the calls of the source. Calls follow the shape of the dose curve; as a rule, active = well fitted inhibition curve with a large enough effect; inconclusive = small, poorly fitted or top-dose-only effect; inactive = flat fitted curve, though single readings scatter.
Possible outcomes: active, inactive

compound	class_assignment
CC(C)OC(=O)C(C(=O)OC(C)C)=C1SC=CS1	inactive
COc1ccc2cc3[n+](cc2c1OC)CCc1cc2c(cc1-3)OCO2	active
OC(Cn1cncn1)(Cn1cncn1)c1ccc(F)cc1F	inactive
COC(=O)Nc1nc2ccc(Sc3ccccc3)cc2[nH]1	inactive
O=P(O)(O)C(O)(Cc1cccnc1)P(=O)(O)O	inactive
CCCCOc1ccc(CC(=O)NO)cc1	active
CC(C)NCC(O)c1ccc(NS(C)(=O)=O)cc1 (stereo not drawn)	inactive
Cc1ncc([N+](=O)[O-])n1CCO	inactive
CN1CCCC(n2nc(Cc3ccc(Cl)cc3)c3ccccc3c2=O)CC1 (stereo not drawn)	inactive
O=c1cc(O)c(Cl)c[nH]1	inactive
CCc1cc(C(N)=S)ccn1	inactive
COC(=O)Nc1nc2ccc(C(=O)c3ccccc3)cc2[nH]1	inactive
CN(C)c1ccc(C(=C2C=CC(=[N+](C)C)C=C2)c2ccc(N(C)C)cc2)cc1	active
COc1ccc(-c2ccc3cc(C(=O)O)ccc3c2)cc1C12CC3CC(CC(C3)C1)C2	inactive
CC1=CC(=O)c2ccccc2C1=O	inactive
CC[C@H](NC(C)C)[C@H](O)c1ccc(O)c2[nH]c(=O)ccc12	inactive
CN1CCN(c2c(F)cc3c(=O)c(C(=O)O)cn4c3c2OCN4C)CC1	inactive
CNC1CCCN(c2c(F)cc3c(=O)c(C(=O)O)cn(C4CC4)c3c2OC)C1 (stereo not drawn)	inactive
Cc1cccc(N(C)C(=S)Oc2ccc3ccccc3c2)c1	inactive
COc1nc(N)nc2c1ncn2[C@@H]1O[C@H](CO)[C@@H](O)[C@@H]1O	inactive
O=C(O)c1cc(=O)[nH]c(=O)[nH]1	inactive
Cc1oc(=O)oc1CN1CCN(c2cc3c(cc2F)c(=O)c(C(=O)O)c2n3C(C)S2)CC1 (stereo not drawn)	active
CCCc1nc(C)c2c(=O)[nH]c(-c3cc(S(=O)(=O)N4CCN(CC)CC4)ccc3OCC)nn12	inactive

* * *

# assay_info: Cell Viability - LYMP2-010 (AID 981);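 also: cells exposed to compound for 24 hours at 37 °C; nearly all actives have a fitted effect of over 55% in size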
# stated_conditions: LYMP2-010 lymphoblastoid cell viability, qHTS; series mostly up to 92.2 µM
Records with an inconclusive call do not appear. Active and inactive are the calls of the source. The call rests on the fitted dose curve; in most records, active means well fitted cell-killing curve with a large enough effect; inconclusive means small, poorly fitted or top-dose-only effect; inactive means flat fitted curve, though single readings scatter.
Possible outcomes: active, inactive

smi	class_assignment
N=C(N)c1ccc(OCCCCCOc2ccc(C(=N)N)cc2)cc1	active
NC(N)=NC(N)=NCCc1ccccc1	inactive
CC1=NN(c2ccccc2)C(=O)C1	inactive
Cc1cc(NS(=O)(=O)c2ccc(N)cc2)no1	inactive
Cc1noc(NS(=O)(=O)c2ccc(N)cc2)c1C	inactive
C[C@]12C=CC(=O)C=C1CC[C@@H]1[C@@H]2C(=O)C[C@@]2(C)[C@H]1CC[C@]2(O)C(=O)CO	inactive
CCc1cc(C(N)=S)ccn1	inactive
Cc1ncc([N+](=O)[O-])n1CCO	inactive
CN(C)c1ccc(C(=C2C=CC(=[N+](C)C)C=C2)c2ccc(N(C)C)cc2)cc1	active
Cc1ccnc2c1NC(=O)c1cccnc1N2C1CC1	inactive
NNC(=O)c1ccncc1	inactive

* * *

# assay_info: qHTS Screen of the MIPE 4.0 Collection Against Ewings Sarcoma (RDES) (AID 1259252); also: nearly all actives have a fitted effect of over 35% in size
# stated_conditions: RD-ES Ewing sarcoma viability, CellTiter-Glo, 48 h; series mostly up to 45.8 µM
Records with an inconclusive call do not appear. Activity calls are given as the source filed them. Calls come from the whole dose curve; as a rule, active = well fitted inhibition curve with a large enough effect; inconclusive = small, poorly fitted or top-dose-only effect; inactive = no such curve, though single readings can be large or run the other way.
Possible outcomes: active, inactive

smi	class_assignment
Nc1nc(F)nc2c1ncn2[C@@H]1O[C@H](CO)[C@@H](O)[C@@H]1O	active
CC(C)(C)NC(=O)[C@H]1CC[C@H]2[C@@H]3CC[C@H]4NC(=O)C=C[C@]4(C)[C@H]3CC[C@]12C	active
CC1=CC(=O)c2ccccc2C1=O	active
OC(Cn1cncn1)(Cn1cncn1)c1ccc(F)cc1F	inactive
NC(=O)c1cccc(N)c1	inactive
CC(C)(C#N)c1cc(Cn2cncn2)cc(C(C)(C)C#N)c1	inactive
CCN[C@H]1C[C@H](C)S(=O)(=O)c2sc(S(N)(=O)=O)cc21	inactive
O=c1cc(O)c(Cl)c[nH]1	inactive
CCN(C)C(=O)Oc1cccc([C@H](C)N(C)C)c1	inactive
Oc1c(Cl)cc(Cl)c2cccnc12	active
CCOC(=O)c1ccc(C#Cc2ccc3c(c2)C(C)(C)CCS3)nc1	inactive
O=C(O)c1ccc(-n2nc(-c3ccccc3O)nc2-c2ccccc2O)cc1	active

* * *

# assay_info: qHTS assay for small molecule agonists of retinoid X receptor alpha signaling (AID 588544)
# stated_conditions: HEK293T RXRa-UAS-bla, beta-lactamase reporter, 18 h; 530 nm emission
Results filed as inconclusive are left out.

smi	max response [%]
O=C(O)c1cc(=O)[nH]c(=O)[nH]1	0.884
CCc1cc(C(N)=S)ccn1	-5.67
N[C@@H](Cc1ccc(O)c(O)c1)C(=O)O	-21.2
C[C@]12C=CC(=O)C=C1CC[C@@H]1[C@@H]2C(=O)C[C@@]2(C)[C@H]1CC[C@]2(O)C(=O)CO	13.7
Cc1ccnc2c1NC(=O)c1cccnc1N2C1CC1	12
N=C(N)c1ccc(OCCCCCOc2ccc(C(=N)N)cc2)cc1	18.8
Cc1cc(NS(=O)(=O)c2ccc(N)cc2)no1	12.4
O=C(N[C@H](CO)[C@H](O)c1ccc([N+](=O)[O-])cc1)C(Cl)Cl	-13.6
Cc1noc(NS(=O)(=O)c2ccc(N)cc2)c1C	3.43

* * *

# Test system: CP262
# assay_info: qHTS profiling for inhibitors of Plasmodium falciparum proliferation (AID 504749); also: nearly all actives have a fitted effect of over 60% in size
# stated_conditions: P. falciparum in erythrocytes, SYBR Green DNA, 72 h; series mostly up to 28.7 µM
Records with an inconclusive call do not appear. Calls of active or inactive are those of the source. Calls come from the whole dose curve; as a rule, active = well fitted inhibition curve with a large enough effect; inconclusive = small, poorly fitted or top-dose-only effect; inactive = flat fitted curve, though single readings scatter.
Possible outcomes: label 1 for active, label 0 for inactive

molecule	class_assignment
COc1ccc2cc3[n+](cc2c1OC)CCc1cc2c(cc1-3)OCO2	label 1
NC(=O)c1cccnc1	label 0
COc1cc(NCc2ccc3nc(N)nc(N)c3c2C)cc(OC)c1OC	label 1
Cc1ncc([N+](=O)[O-])n1CCO	label 0
C[C@]12C=CC(=O)C=C1CC[C@@H]1[C@@H]2C(=O)C[C@@]2(C)[C@H]1CC[C@]2(O)C(=O)CO	label 0
CN(C)CCc1c[nH]c2ccc(CS(=O)(=O)N3CCCC3)cc12	label 0
CCn1cc(C(=O)O)c(=O)c2cc(F)c(N3CCNCC3)nc21	label 0
O=C(O)c1cc(=O)[nH]c(=O)[nH]1	label 0
CCOC(=O)[C@H](CCc1ccccc1)N[C@H]1CS[C@H](c2cccs2)CN(CC(=O)O)C1=O	label 0
O=NN(CCCl)C(=O)NC1CCCCC1	label 0
CN1CCCC(n2nc(Cc3ccc(Cl)cc3)c3ccccc3c2=O)CC1 (centres undefined)	label 0
COc1nc(N)nc2c1ncn2[C@@H]1O[C@H](CO)[C@@H](O)[C@@H]1O	label 0
CCCN[C@H]1CCc2nc(N)sc2C1	label 0
CNNCc1ccc(C(=O)NC(C)C)cc1	label 0
CNS(=O)(=O)Cc1ccc2[nH]cc(CCN(C)C)c2c1	label 0
CN(CCOc1ccc(CC2SC(=O)NC2=O)cc1)c1ccccn1 (centres undefined)	label 0
CCc1c2c(nc3ccc(OC(=O)N4CCC(N5CCCCC5)CC4)cc13)-c1cc3c(c(=O)n1C2)COC(=O)[C@]3(O)CC	label 0
CC1=CC(=O)c2ccccc2C1=O	label 0
N[C@@H](C(=O)N[C@@H]1C(=O)N2C(C(=O)O)=C(Cl)CS[C@H]12)c1ccccc1	label 0
NCCCC(O)(P(=O)(O)O)P(=O)(O)O	label 0
CC(C)Cn1cnc2c(N)nc3ccccc3c21	label 0
CC(C)NCC(O)c1ccc(NS(C)(=O)=O)cc1 (centres undefined)	label 0
CC[C@H](C)C(=O)O[C@H]1C[C@@H](C)C=C2C=C[C@H](C)[C@H](CC[C@@H]3C[C@@H](O)CC(=O)O3)[C@H]21	label 0
Cc1ccnc2c1NC(=O)c1cccnc1N2C1CC1	label 0
COc1ccc(-c2ccc3cc(C(=O)O)ccc3c2)cc1C12CC3CC(CC(C3)C1)C2	label 0
CN(Cc1cc(Br)cc(Br)c1N)C1CCCCC1	label 0
O=P(O)(O)C(O)(Cc1cccnc1)P(=O)(O)O	label 0
COc1cnc(NS(=O)(=O)c2ccc(N)cc2)nc1	label 0
CCn1cc(C(=O)O)c(=O)c2cc(F)c(N3CCNCC3)cc21	label 0
CCOC(=O)c1ccc(OC(=O)CCCCCN=C(N)N)cc1	label 0
CCOC(=O)c1ccc(C#Cc2ccc3c(c2)C(C)(C)CCS3)nc1	label 0
NC(N)=NC(N)=NCCc1ccccc1	label 0
CCOCC(O)COc1ccc(NC(=O)CC[S+](C)C)cc1 (centres undefined)	label 0
S=P(N1CC1)(N1CC1)N1CC1	label 0
CN1CCN(c2c(F)cc3c(=O)c(C(=O)O)cn(CCF)c3c2F)CC1	label 0
CC(=O)Oc1ccccc1C(=O)Nc1ncc([N+](=O)[O-])s1	label 0
Cc1cccc(N(C)C(=S)Oc2ccc3ccccc3c2)c1	label 0
COc1cccc(N(C)C(=S)Oc2ccc3c(c2)CCCC3)n1	label 0
CC(C)OC(=O)C(C(=O)OC(C)C)=C1SC=CS1	label 0
Cn1nnc2c(C(N)=O)ncn2c1=O	label 0
CC[C@H](NC(C)C)[C@H](O)c1ccc(O)c2[nH]c(=O)ccc12	label 0
COc1ncnc(NS(=O)(=O)c2ccc(N)cc2)c1OC	label 0
CN(C)c1ccc(C(=C2C=CC(=[N+](C)C)C=C2)c2ccc(N(C)C)cc2)cc1	label 1
Nc1nc(N)nc(-c2cc(Cl)ccc2Cl)n1	label 0
COc1cc([C@@H]2c3cc4c(cc3[C@H](O)[C@H]3COC(=O)[C@H]23)OCO4)cc(OC)c1OC	label 0
CC(N)C12CC3CC(CC(C3)C1)C2 (centres undefined)	label 0
CCc1cc(C(N)=S)ccn1	label 0
Cc1noc(NS(=O)(=O)c2ccc(N)cc2)c1C	label 0
N=C(N)c1ccc(OCCCCCOc2ccc(C(=N)N)cc2)cc1	label 1
